Record form. Attribute: melting point. Fill in for each entry.

What value of melting point has been reported for the following molecule? CC(C)C[C@H](NC(=O)OCc1ccccn1)C(=O)N[C@@H](Cc1ccccc1)C(=O)CSCc1ccco1
93 to 94 °C

Next molecule up: CCCCn1cc(C(=O)C(=O)O)c2cc(-c3ccc(OC)cc3)ccc21
172 to 173 °C

Next molecule up: Cc1cc(C(=O)N(C(C)C)C(C)C)ccc1[N+](=O)[O-]
108 to 110 °C

Next molecule up: CN1C(=O)[C@H](NC(=O)CNc2ccccc2Cl)N=C(c2ccccc2)c2ccccc21
222 to 224 °C

Next molecule up: O=C(NCCO)c1cccc(-c2cccc3nn(Cc4ccccc4F)cc23)c1
159 to 160 °C

====

OBSERVABLE: melting point

What value of melting point has been reported for the following compound? Cc1noc(CN2CCC[C@@H](OCc3cc(C(F)(F)F)cc(C(F)(F)F)c3)[C@H]2c2ccccc2)n1 (relative stereo)
85 to 86 °C

Next compound up: FC(F)(F)C(F)(F)C(F)(F)COc1ccnc(CSc2nc3cscc3[nH]2)c1
117 °C

Next compound up: COc1ccccc1N1CCN(CCCNC(=O)NC23CC4CC(CC(C4)C2)C3)CC1
181 to 182 °C

Next compound up: COc1cnc(NCCNCC(O)COc2ccccc2)c2ccccc12 (stereo not given)
152 to 153 °C

Next compound up: CCCCCCCCCCCCOC(=O)NCCCCC(N)C(=O)O (stereo not given)
> 260 °C

Next compound up: CCCCC(=O)Oc1ccc(-c2nc(-c3ccc(Cl)cc3)c(CC(=O)O)s2)cc1
197 to 199 °C

Next compound up: O=C(Nc1ccc2cc(CN3CCCC3)cnc2c1)N1CCC(c2ccccc2)CC1
222 to 224 °C

Next compound up: CCOC1CC2(C)C(CCC3C2C(=NO)CC2(C)C3CCC23OCCO3)CC1O (stereo not given)
136 to 140 °C

Next compound up: CC(C)(C)OC(=O)CCc1cc(C#N)nc(-c2nc(=O)c3ccccc3s2)c1
190 to 191 °C

Next compound up: CCn1ncc2c(NCc3ccccc3)c3ccc(O)cc3nc21
252 to 254 °C

Next compound up: CCc1ccc2c(c1)C(C(=O)O)c1ccccc1CO2 (stereo not given)
154 to 155 °C

Next compound up: CN1CCN(c2ccc(F)cc2C=C2CCCN(c3ccc(Cl)c(Cl)c3)C2=O)CC1
161 to 162 °C

Next compound up: CC1(C)CCC(C)(C)C2=C1C=C(CC#Cc1ccc(C(=O)O)cc1)CC2(O)OCc1ccc(C(F)(F)F)cc1 (stereo not given)
222 °C

Next compound up: CCCCc1ccc(-c2ccc(CCc3ccc(Cl)cc3)cc2)cc1
129 °C

Next compound up: CS(=O)(=O)c1ccc(-c2[nH]c(Cl)cc2-c2ccc(F)cc2)cc1
206 to 208 °C

Next compound up: COc1cc2c(cc1OC)-c1c([N+](=O)[O-])sc(=N)n1CC2
220 to 221 °C

Next compound up: CC1(S(=O)(=O)C2(C)C=CC=CC2O)C=CC=CC1O (stereo not given)
95 to 97 °C

Next compound up: CNC(=O)N1C=CSC1c1sc(SC)c2c1CC(C)(C)CC2=O (stereo not given)
202 to 204 °C

Next compound up: Fc1cccc(-c2ncc(-c3cnc(-c4cccnc4)[nH]3)cn2)c1
309 °C

Next compound up: CCC1=NN(CCO[Si](C)(C)C(C)(C)C)C(=O)C1Oc1cc(C#N)cc(C#N)c1 (stereo not given)
204 °C
